Tested on: A-549
Test: Inhibition of cells growth by colorimetric assay (SRB), A-549
Format: cell-based
Settings: Homo sapiens, A549, 48 h, read-out: LC50 A-549, A-549; SRB, 48 hours exposure
Procedure: 2°.—Inhibition of Cells Growth by Colorimetric Assay. A colorimetric type of assay, using sulforhodamine B (SRB) reaction has been adapted for a quantitative measurement of cell growth and viability [following the technique described by Philip Skehan, et al. (1990), New colorimetric cytotoxicity assay for anticancer drug screening, J. Natl. Cancer Inst., 82:1107-1112] […] The values for mean+/−SD of data from triplicate wells are calculated. […]
measured.property: LC50 (concentration for 50% cell killing) (nM)
Reply with just the number (in nM).

COc1cc2c(cc1OC(=O)CCc1ccccc1)CCN[C@]21CS[C@@H]2c3c(OC(C)=O)c(C)c4c(c3[C@H](COC1=O)N1C2[C@H]2c3c(cc(C)c(OC)c3O)C[C@@H]([C@@H]1O)N2C)OCO4 (some centres unmarked) : 7.83

Problem: So what does the record say about LC50 (concentration for 50% cell killing) for COc1cc2c(cc1OC(=O)OC(C)(C)C)CCN[C@]21CS[C@@H]2c3c(OC(C)=O)c(C)c4c(c3[C@H](COC1=O)N1C2[C@H]2c3c(cc(C)c(OC)c3OC(C)C)C[C@@H]([C@@H]1C#N)N2C)OCO4 (some centres unmarked) ?
Solution: 927

Where do the numbers come from? From patent US7759345B2.
